test system: BT-474; assay: normalised response (% of control), CellTiter-Glo; higher = more viable cells (100 = DMSO, 0 = benzethonium chloride kill control); settings: incubation time: 72 h
parameter: normalised response (%)
Express the result in % but write the number alone.

[
  {
    "compound": "Nc1ccccc1NC(=O)c1ccc(CNc2nccc(-c3cccnc3)n2)cc1 [Mocetinostat] (1 nM)",
    "result": 100
  },
  {
    "compound": "CCC/C=C/C=C/C(=O)O[C@H]1/C(=C/C(=O)OC)C[C@H]2C[C@H]([C@@H](C)O)OC(=O)C[C@H](O)C[C@@H]3C[C@H](OC(C)=O)C(C)(C)[C@](O)(C[C@@H]4C/C(=C/C(=O)OC)C[C@H](/C=C/C(C)(C)[C@]1(O)O2)O4)O3 [Bryostatin 1] (10 nM)",
    "result": 87.2
  },
  {
    "compound": "C[C@]12C=CC(=O)C=C1CC[C@@H]1[C@@H]2[C@@H](O)C[C@@]2(C)[C@H]1CC[C@]2(O)C(=O)CO [Prednisolone] (10 nM)",
    "result": 112
  }
]

Here's the next entry for you.
Provide the reported normalised response (system: BT-474) for Nc1cccc2c1CN(C1CCC(=O)NC1=O)C2=O (centres undefined) [Lenalidomide] (1 nM)
97

---

tested on: HDQ-P1; experiment: normalised response (% of control), CellTiter-Glo; higher = more viable cells (100 = DMSO, 0 = benzethonium chloride kill control); conditions: incubation time: 72 h
parameter: normalised response (%)
Express the result in % but write the number alone.

# example entries with known answers
[
  {
    "molecule": "Nc1cccc2c1CN(C1CCC(=O)NC1=O)C2=O (stereo not given) [Lenalidomide] (1 nM)",
    "target.under.test": "HDQ-P1",
    "result": 97.9
  },
  {
    "molecule": "Nc1ccccc1NC(=O)c1ccc(CNc2nccc(-c3cccnc3)n2)cc1 [Mocetinostat] (1 nM)",
    "target.under.test": "HDQ-P1",
    "result": 101
  },
  {
    "molecule": "COc1ccc(-c2cc3c(C)nc(N)nc3n([C@H]3CC[C@H](OCCO)CC3)c2=O)cn1 (10 nM)",
    "target.under.test": "HDQ-P1",
    "result": 87.2
  }
]

For the molecule C[C@]12O[C@H](C[C@]1(O)CO)n1c3ccccc3c3c4c(c5c6ccccc6n2c5c31)CNC4=O [Lestaurtinib] (100 nM) , give its reported normalised response.
95.8

For the molecule O=C(Nc1c[nH]nc1-c1nc2ccc(CN3CCOCC3)cc2[nH]1)NC1CC1 [AT9283] (1 nM) , give its reported normalised response.
103
